The reported measurements were obtained from ChEMBL document CHEMBL4513139.

Test system: Staphylococcus aureus
assay context: Concentration 32 ug.mL-1; ASSAY_TEST Inhibition of Bacterial Growth; detection method Absorption (OD600); MEDIA CAMHB; plate type 384well; NBS; CORNING #3640; time 18 hr
Description: Antibacterial activity against Staphylococcus aureus MRSA ATCC 43300 (CO-ADD:GP_020); MIC in CAMBH media, using NBS plates, by OD(600)
Results with a measured potency or affinity are listed apart.

| smiles input | Inhibition / % |
| --- | --- |
| CN(C)CCCNC(=O)c1cc(NC(=O)c2cc(NC(=O)c3ccc(C(=O)O)cc3)cn2C)cn1C.O=C(O)C(F)(F)F | 10.82 |
| CN(C)CCCNC(=O)c1cc(NC(=O)c2cc(NC(=O)c3cc(NC(=N)N)cn3C)cn2C)cn1C.O=C(O)C(F)(F)F.O=C(O)C(F)(F)F | 14.94 |
| COCCOC1CCN(C(=O)c2cc(NC(=O)c3cc(NC(=O)c4ccc(/C=C/c5cnc6ccccc6c5)cc4)cn3C)cn2C)CC1 | 5.5 |
| Cc1ncc(Cn2cc(CCCN)nn2)c(N)n1.Cl | 14.19 |
| Cc1ncc(Cn2cc(CCCCO)nn2)c(N)n1 | 1.62 |

###

Tested on: Escherichia coli
assay context: Concentration 32 ug.mL-1; ASSAY_TEST Inhibition of Bacterial Growth; detection method Absorption (OD600); MEDIA CAMHB; plate type 384well; NBS; CORNING #3640; time 18 hr
Description: Antibacterial activity against Escherichia coli ATCC 25922 (CO-ADD:GN_001); MIC in CAMBH media using NBS plates, by OD(600)
Entries with a potency or affinity are not part of this list.
Attribute: Inhibition
value type: Inhibition (%)

| smiles input | quantity unit | endpoint result |
| --- | --- | --- |
| COCCOC1CCN(C(=O)c2cc(NC(=O)c3cc(NC(=O)c4ccc(/C=C/c5ccc(OC)cc5)cc4)cn3C)cn2C)CC1.O=S(=O)(O)O | % | 96.85 |
| CC(C)CCn1cc(NC(=O)c2cc(NC(=O)c3cc(NC(=N)c4ccccc4)cn3C)cn2C)cc1C(=O)NCCCN(C)C.O=C(O)C(F)(F)F.O=C(O)C(F)(F)F | % | -19.15 |
| CN(C)CCCNC(=O)c1cc(NC(=O)c2cc(NC(=O)c3cc(NC(=N)c4ccccc4)cn3C)cn2C)cn1C.O=C(O)C(F)(F)F.O=C(O)C(F)(F)F | % | -15.33 |

###

Test system: Staphylococcus aureus
assay context: Concentration 32 ug.mL-1; ASSAY_TEST Inhibition of Bacterial Growth; detection method Absorption (OD600); MEDIA CAMHB; plate type 384well; NBS; CORNING #3640; time 18 hr
Potency and affinity values are given separately.

| smiles input | Inhibition [%] |
| --- | --- |
| COC(=O)c1ccc(C(=O)Nc2cc(C(=O)Nc3cc(C(=O)NCCC(=N)N)n(C)c3)n(C)c2)cc1.O=C(O)C(F)(F)F | 12.34 |
| CC(C)CCc1sc(NC(=O)c2cc(NC(=O)c3ccc(/C=C/c4cc5ccccc5nc4Cl)cc3)cn2C)nc1C(=O)NCCN1CCOCC1.O=C(O)C(F)(F)F | 1.02 |
| Cc1ncc(CNc2ccccc2F)c(N)n1 | 17.82 |
| COc1cccc(C(=O)Nc2cc(C(=O)Nc3cc(C(=O)Nc4cn(CCCN(C)C)cn4)n(C)c3)n(C)c2)c1.O=C(O)C(F)(F)F | 20.04 |
| CC(=O)N(C(C)=O)c1cc(C(=O)Nc2cc(C(=O)NCCC(=N)N)n(C)c2)n(C)c1.O=C(O)C(F)(F)F | 98.15 |
| CC(=O)Nc1cc(C(=O)Nc2cc(C(=O)Nc3cc(C(=O)NCCCN(C)C)n(C)c3)n(C)c2)n(C)c1.O=C(O)C(F)(F)F | 20.29 |
| CN(C)CCCNC(=O)c1cc(NC(=O)c2cc(NC(=O)c3cc4ccccc4cn3)cn2C)cn1C.O=C(O)C(F)(F)F | 20.5 |
| CC(C)CCc1sc(NC(=O)c2cc(NC(=O)c3ccc(/C=C/c4cc5ccccc5nc4On4nnc5ccccc54)cc3)cn2C)nc1C(=O)NCCN1CCOCC1.O=C(O)C(F)(F)F | -16.43 |
| COc1cccc(/C=C/c2ccc(C(=O)Nc3cc(C(=O)Nc4cc(C(=O)NCCN(C)C)n(C)c4)n(C)c3)cc2)c1.O=C(O)C(F)(F)F | 98.95 |
| CC(=N)Nc1cc(C(=O)Nc2cc(C(=O)Nc3cc(C(=O)NCCN4CCOCC4)n(C)c3)n(C)c2)n(C)c1.O=C(O)C(F)(F)F.O=C(O)C(F)(F)F | 23.57 |
| CC(C)CCc1sc(NC(=O)c2cc(NC(=O)c3cc(NC(=O)CCC(=O)O)cn3C)cn2C)nc1C(=O)NCCCN(C)C.O=C(O)C(F)(F)F | 3.82 |
| COc1ccc(/C=C(/C(=O)Nc2cc(C(=O)Nc3cc(C(=O)NCCCN(C)C)n(C)c3)n(C)c2)c2ccc(OC)cc2)cc1.O=C(O)C(F)(F)F | 49.85 |
| Cc1ncc(CNc2ccc(C(F)(F)F)cc2)c(N)n1 | -6.95 |
| CN(C)CCCNC(=O)c1cc(NC(=O)c2cc(NC(=O)CCC(=O)O)cn2C)cn1C.O=C(O)C(F)(F)F | 5.68 |
| Cc1ncc(Cn2cc(CO)nn2)c(N)n1 | 15.8 |
| Cc1ncc(CO)c(N)n1 | 1.81 |

###

Attribute: Inhibition
System: Staphylococcus aureus
assay context: Concentration 32 ug.mL-1; ASSAY_TEST Inhibition of Bacterial Growth; detection method Absorption (OD600); MEDIA CAMHB; plate type 384well; NBS; CORNING #3640; time 18 hr
Measured potencies and affinities stand elsewhere.
value type: Inhibition

| smiles input | endpoint result |
| --- | --- |
| COC(=O)CCC(=O)Nc1cc(C(=O)Nc2cc(C(=O)NCCCN(C)C)n(C)c2)n(C)c1.O=C(O)C(F)(F)F | 5.2% |
| Cn1cc(NC(=O)c2cc(NC(=O)c3sc(N)nc3C(F)(F)F)cn2C)cc1C(=O)NCCC(=N)N.O=C(O)C(F)(F)F | -17.29% |
| COc1cccc(C(=N)Nc2cc(C(=O)Nc3cc(C(=O)NCCC(=N)N)n(C)c3)n(C)c2)c1.O=C(O)C(F)(F)F.O=C(O)C(F)(F)F | 96.74% |
| Cc1ncc(CNc2ccc(C(C)(C)C)cc2)c(N)n1 | -2.14% |
| Cn1cc(NC(=O)c2cc(NC(=O)c3ccc(/C=C/c4cccc(F)c4)cc3)cn2C)cc1C(=O)NCCN1CCOCC1.O=C(O)C(F)(F)F | 33.99% |
| COc1cccc(C(=N)Nc2cc(C(=O)Nc3cc(C(=O)Nc4cc(C(=O)NCCCN5CCOCC5)n(C)c4)n(C)c3)n(C)c2)c1.O=C(O)C(F)(F)F.O=C(O)C(F)(F)F | 26.72% |
| COC(=O)CCC(=O)Nc1cc(C(=O)Nc2cc(C(=O)NCCC(=N)N)n(C)c2)n(C)c1.O=C(O)C(F)(F)F | 0.86% |

###

Tested on: Staphylococcus aureus
assay context: Concentration 32 ug.mL-1; ASSAY_TEST Inhibition of Bacterial Growth; detection method Absorption (OD600); MEDIA CAMHB; plate type 384well; NBS; CORNING #3640; time 18 hr
Potency and affinity values are given separately.

| smiles input | Inhibition [%] |
| --- | --- |
| COCCOC1CCN(C(=O)c2cc(NC(=O)c3cc(NC(=O)c4ccc(/C=C/c5ccc(OC)cc5)cc4)cn3C)cn2C)CC1.O=S(=O)(O)O | 99.55 |
| CC(C)CCc1sc(NC(=O)c2cc(NC(=O)c3cc(NC(=O)c4ccc(C(=O)O)cc4)cn3C)cn2C)nc1C(=O)NCCCN(C)C.O=C(O)C(F)(F)F | 8.57 |
| Cn1cc(NC(=O)c2cc(NC(=O)c3sc(N)nc3C(F)(F)F)cn2C)cc1C(=O)NCCN1CCOCC1.O=C(O)C(F)(F)F | 12.04 |
| Cc1ncc(CNc2cccc(F)c2)c(N)n1 | 13.69 |
| CC(C)c1sc(N)nc1C(=O)Nc1cc(C(=O)NCCN2CCOCC2)n(C)c1.O=C(O)C(F)(F)F | 4.82 |

###

Attribute: Inhibition
Tested on: Staphylococcus aureus
assay context: Concentration 32 ug.mL-1; ASSAY_TEST Inhibition of Bacterial Growth; detection method Absorption (OD600); MEDIA CAMHB; plate type 384well; NBS; CORNING #3640; time 18 hr
Measured potencies and affinities stand elsewhere.
value type: Inhibition

| smiles input | value type | endpoint result |
| --- | --- | --- |
| CCOC(=O)c1cc(NC(=O)c2cc(NC(=O)c3sc(N)nc3C(F)(F)F)cn2C)cn1C | Inhibition | 23.52% |
| Cc1ncc(Cn2cc(CCC(=O)O)nn2)c(N)n1.O=C(O)C(F)(F)F | Inhibition | 15.37% |
| CN(C)CCCNC(=O)c1cc(NC(=O)c2cc(NC(=O)c3cc(NC(=N)c4ccccc4)cn3C)cn2C)cn1C.O=C(O)C(F)(F)F.O=C(O)C(F)(F)F | Inhibition | 0.44% |
| CC(C)c1sc(NC(=O)c2cc(NC(=O)c3cc(NC(=O)c4cnc(Cl)c(Cl)c4)cn3C)cn2C)nc1C(=O)NCCCN(C)C.O=C(O)C(F)(F)F | Inhibition | 50.09% |
| Cc1ccc(S(=O)(=O)NCCc2cn(Cc3cnc(C)nc3N)nn2)cc1 | Inhibition | 16.06% |
| CC(C)c1sc(N)nc1C(=O)Nc1cc(C(=O)Nc2cc(C(=O)NCCN3CCOCC3)n(C)c2)n(C)c1.O=C(O)C(F)(F)F | Inhibition | 1.1% |
| Cc1ncc(CNc2ccc(F)cc2)c(N)n1 | Inhibition | 25.09% |
| CCOC(=O)c1cc(NC(=O)c2cc(NC(=O)c3nc(N)sc3C(C)C)cn2C)cn1C | Inhibition | 29.56% |
